Cited source for all entries: PubChem BioAssay AID652031

biological target: Kappa-type opioid receptor (Homo sapiens) (UniProt P41145); experiment: blocks the human kappa opioid receptor, Maybridge compounds (AID 652031); conditions: OPRK1 cells, antagonist mode, fluorescence readout; at 9 µM; hits give high values
Sequence (P41145 whole entry, looked up): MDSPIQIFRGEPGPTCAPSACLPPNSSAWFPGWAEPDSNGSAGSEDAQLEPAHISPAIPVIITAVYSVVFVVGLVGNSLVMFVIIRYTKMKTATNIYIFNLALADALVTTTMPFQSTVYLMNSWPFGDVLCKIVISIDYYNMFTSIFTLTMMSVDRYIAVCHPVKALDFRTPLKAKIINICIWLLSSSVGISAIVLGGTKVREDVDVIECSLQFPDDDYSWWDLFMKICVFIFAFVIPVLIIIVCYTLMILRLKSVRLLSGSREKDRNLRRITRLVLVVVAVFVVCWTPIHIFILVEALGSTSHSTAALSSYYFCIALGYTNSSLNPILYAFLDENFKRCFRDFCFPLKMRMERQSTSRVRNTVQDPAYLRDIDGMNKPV
In all, about 16,000 compounds went through this assay and about 70 (0.4%) were called active. What follows is part of a selection rich in actives, with near analogues and random picks from the rest.
Measurement label: inhibition (%)

>>> value("CCc1cnc(NS(=O)(=O)c2cc(Cl)sc2Cl)nc1-c1c(F)cccc1F")
1.8
>>> value("CCCN(CCC)S(=O)(=O)c1ccc(C(=O)NNC(=O)c2cc(OC)c(OC)c(OC)c2)cc1")
-2.1
>>> value("CCCc1c(C(=O)O)cnn1-c1ccc(Cl)cc1")
-5.5
>>> value("CC(=O)OCC(=O)[C@@]1(O)[C@H](C)CC2C3CCC4=CC(=O)C=CC4(C)C3=CCC21C (stereo partly drawn)")
0.2
>>> value("CCOC(=O)C(NC(=O)c1ccco1)(Nc1cc(C)ccn1)C(F)(F)F (stereo not drawn)")
-1.7
>>> value("CC(=O)Nc1ccc(/C(N)=N/O)cc1")
9.1
>>> value("O=C(N/N=C/c1cccs1)C(=O)Nc1ccc(Cl)c(Cl)c1")
-4.8
>>> value("COC(=O)CCN1CCc2cc(N=Nc3ccc(C(F)(F)F)cc3)ccc21")
15.2
